// data source = paper PMC7456513

- Target entity: HasAp (Pseudomonas aeruginosa, UniProt G3XD33)
- Assay text: tryptophan fluorescence quenching titration
- Assay type: binding
- Details: read-out: KD (nM, ± SD)
Readout type: Kd
Please answer using the number first and the unit second.

C1=[N+]2c3ccccc3[N+]3=Cc4ccccc4[O][Fe-]23[O]c2ccccc21; 1050 nM

Read the next record carefully.
Inquiry: Indicate its recorded Kd; the compound in question is C=CC1=C(C)C2=[N+]3C1=Cc1c(C)c(C=C)c4[n]1[Ga-]31[n]3c(c(C)c(CCC(=O)O)c3=CC3=[N+]1C(=C4)C(C)=C3CCC(=O)O)=C2 (centres unmarked)
Reply text: 280 nM

* * *

- Target entity: HasAp (Pseudomonas aeruginosa, UniProt G3XD33)
- Assay text: tryptophan fluorescence quenching titration
- Type: binding
Readout type: Kd (nM)
Answers are plain numbers, in nM.

Inquiry: Indicate its recorded Kd; the compound in question is C=CC1=C(C)C2=Cc3c(C=C)c(C)c4[n]3[Fe][n]3c(c(C)c(CCC(=O)O)c3=CC3=NC(=C4)C(C)=C3CCC(=O)O)=CC1=N2 [heme]
Reply text: 350

* * *

- Target entity: HasAp (Pseudomonas aeruginosa)
- Assay text: tryptophan fluorescence quenching titration
- Format: binding
- Details: read-out: KD (nM, ± SD)
Readout type: Kd (nM)
Numbers only, in nM.

Inquiry: Indicate its recorded Kd; the molecule in question is `C1=[N+]2c3ccccc3[N+]3=Cc4ccccc4[O][Ga-]23[O]c2ccccc21`
Reply text: 2050
